- assay-details: chemical genetic growth profiling, strain panel (AID 1159580);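 note: tested at 20 µM; growth read once vehicle control cultures reached saturation at 30 °C; 1 = growth at the plate median or of vehicle wells; lower values mean less growth of the strain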
- details: S. cerevisiae deletion strains, growth OD, locus YDR159W, strain sac3, stronger effect = lower value
The campaign covered roughly 5,500 compounds. About 2,000 (36%) were called active. Not shown: some 18% with an inconclusive outcome. Some of the results follow.

smiles-string	normalized growth
OCCN1CCN(CCCN2c3ccccc3Sc3ccc(Cl)cc32)CC1	1.01
CN1CCN(CCCN2c3ccccc3Sc3ccc(Cl)cc32)CC1	0.974
O=c1n(CCCN2CCN(c3cccc(Cl)c3)CC2)nc2ccccn12	0.956
CC(=O)c1ccc2c(c1)N(CCCN(C)C)c1ccccc1S2	1.01
N#Cc1ccc2c(c1)N(CCCN1CCC(O)CC1)c1ccccc1S2	0.979
Cc1c(N(C)CS(=O)(=O)O)c(=O)n(-c2ccccc2)n1C	1
